Test system: D. immitis transglutaminase
Assay: Effect of ions, inhibitors and other reagents on activity of transglutaminase purified from adult D. immitis worms (microtiter plate assay)
Format: biochemical
assay.endpoint: Effect on activity of transglutaminase purified from adult D. immitis worms (in words)

INSERT INTO measurements (structure_string, recorded_measurement) VALUES
  ('NCCCCN', 'inhibited competitively'),
  ('NCCSSCCN', 'inhibited competitively'),
  ('CN(C)c1cccc2c(S(=O)(=O)NCCCCCN)cccc12', 'inhibited competitively');

----------
Test system: PHIS-PDiTG468
Assay type: biochemical, D. immitis
assay.endpoint: Effect on transglutaminase activity of PHIS-PDiTG468 (in words)

INSERT INTO assay_data (molecule, recorded_measurement) VALUES
  ('O=C(O)CN(CCN(CC(=O)O)CC(=O)O)CC(=O)O [EDTA]', 'inhibited'),
  ('O=C(O)CN(CCOCCOCCN(CC(=O)O)CC(=O)O)CC(=O)O [EGTA]', 'inhibited');
